Catalogue of normalized RNA/DNA level with ligand (log10) values
B1: library; a variant is named by its letters at N, in order (parent)
chain: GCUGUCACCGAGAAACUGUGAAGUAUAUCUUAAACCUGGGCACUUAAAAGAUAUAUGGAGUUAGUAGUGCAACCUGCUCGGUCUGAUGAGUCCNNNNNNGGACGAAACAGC

Variants of: B1
Test: normalized RNA/DNA level with ligand (relative to sTRSVctl = 100) (log10 (% of sTRSVctl)); HEK293T; ligand: cyclic di-GMP (c-di-GMP-II aptamer); ligand concentration (+) RNA-Seq: 1 mM; higher = less ribozyme self-cleavage, higher mRNA level
Conditions: reporter: mCherry (pCS4076), ligand present: yes
Could you respond with only the numeric value?

Use the examples below as a reference point.
> print(dat)
   residue.change  data.value
1          UUGCUA        1.81
2          GAUCGU        1.81
3          CUUAUA        1.65
4          UGAGUA        1.85
5          ACAGAC        1.71
6          UCCUUG        1.86

Query :: Bench note: what normalized RNA/DNA level with ligand (log10) did AAUGUG show?
Result :: 1.76

Query :: // lookup normalized RNA/DNA level with ligand (log10) for ACGCCU
Result :: 1.8

Query :: Please report the recorded normalized RNA/DNA level with ligand (log10) for CCCAAU .
Result :: 1.77

Query :: Could you share which normalized RNA/DNA level with ligand (log10) value was measured for GCUACG ?
Result :: 1.72
